assay: Permeability from basolateral to apical side in human Caco2 cells; format: ADME, cell-based; settings: Caco-2, read-out: permeability
recorded endpoint: Papp B→A (×10⁻⁶ cm/s)
Value expressed in ×10⁻⁶ cm/s; do not type the unit.

Query :: Give the reported Papp B→A for this molecule. Cc1cc2ccc1[C@@H](C)COC(=O)Nc1ccc(C3CC3)c(c1)CN(C)C(=O)[C@@H]2Nc1ccc2c(N)nccc2c1
Result :: 9.3

* * *

recorded endpoint: pKi
Remember the convention: pKi equals -log10 of concentration in molar.

Query :: Report the value of pKi obtained on UniProt P06870 for Cc1cc2ccc1[C@@H](C)COC(=O)Nc1ccc(C3(c4nnn[nH]4)CC3)c(c1)CN(C)C(=O)[C@@H]2Nc1ccc2c(N)ncc(F)c2c1 .
Sequence (P06870 whole entry): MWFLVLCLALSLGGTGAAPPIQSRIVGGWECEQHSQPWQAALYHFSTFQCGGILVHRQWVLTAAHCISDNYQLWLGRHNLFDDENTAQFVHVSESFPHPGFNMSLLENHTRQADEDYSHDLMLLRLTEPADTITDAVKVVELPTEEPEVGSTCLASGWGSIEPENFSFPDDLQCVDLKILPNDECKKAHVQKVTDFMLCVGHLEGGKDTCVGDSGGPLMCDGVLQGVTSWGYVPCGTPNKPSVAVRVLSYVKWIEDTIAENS
Result :: 6.02

Query :: Retrieve pKi on UniProt P06870; query Cc1cc2ccc1[C@@H](C)COC(=O)Nc1ccc(C3(C(=O)O)CCOCC3)c(c1)CN(C)C(=O)[C@@H]2Nc1ccc2c(N)ncc(F)c2c1
Result :: 5.28

Query :: # assay system UniProt P06870: give pKi of Cc1cc2ccc1[C@@H](C)COC(=O)Nc1ccc(C3CC3)c(c1)CN(C)C(=O)[C@@H]2Nc1ccc2c(N)ncc(F)c2c1
Result :: 7.82

* * *

assay: Inhibition of trypsin (unknown origin) at 25 degC by chromogenic substrate assay; set-up: species or system Homo sapiens
Task for the reader: assign each of the following molecules its reported Ki.
# unit: µM | format: bare number

Query :: Could you please provide reported Ki for Cc1cc2ccc1[C@@H](C)COC(=O)Nc1ccc(C3(C(=O)O)CCCCC3)c(c1)CN(C)C(=O)[C@@H]2Nc1ccc2c(N)ncc(F)c2c1 ? Thanks!
Result :: 0.505

Query :: Report measured Ki; entry is Cc1cc2ccc1[C@@H](C)COC(=O)Nc1ccc(C3(C(=O)O)CCC3)c(c1)CN(C)C(=O)[C@@H]2Nc1ccc2c(N)ncc(F)c2c1
Result :: 3.4

Query :: Name the recorded Ki of the molecule listed here: Cc1cc2ccc1[C@@H](C)COC(=O)Nc1ccc(C3(c4nnn[nH]4)CC3)c(c1)CN(C)C(=O)[C@@H]2Nc1ccc2c(N)ncc(F)c2c1
Result :: 4.9

Query :: State, in one line, measured Ki of Cc1cc2ccc1[C@@H](C)COC(=O)Nc1ccc(C3(C(=O)O)CC3)c(c1)CN(C)C(=O)[C@@H]2Nc1ccc2c(N)ncc(F)c2c1
Result :: 2.75

Query :: Indicate its recorded Ki; the molecule in question is Cc1cc2ccc1[C@@H](C)COC(=O)Nc1ccc(C3(C(=O)O)CCCC3)c(c1)CN(C)C(=O)[C@@H]2Nc1ccc2c(N)ncc(F)c2c1
Result :: 2.2

* * *

For each of the compounds below, state its Papp.
assay: Permeability of the compound at pH 5.5 by PAMPA assay; format: ADME; details: read-out: permeability
I only need the number, in ×10⁻⁶ cm/s, no unit after it.

Query :: In one line, give reported Papp of the entry Cc1cc2ccc1[C@@H](C)COC(=O)Nc1ccc(C3(C(=O)O)CCCCC3)c(c1)CN(C)C(=O)[C@@H]2Nc1ccc2c(N)ncc(F)c2c1 .
Result :: 80.5

Query :: Name the recorded Papp of the compound listed here: Cc1cc2ccc1[C@@H](C)COC(=O)Nc1ccc(C3(c4nnn[nH]4)CC3)c(c1)CN(C)C(=O)[C@@H]2Nc1ccc2c(N)ncc(F)c2c1
Result :: 11.9

Query :: Answer with reported Papp of Cc1cc2ccc1[C@@H](C)COC(=O)Nc1ccc(C3(C(=O)O)CC3)c(c1)CN(C)C(=O)[C@@H]2Nc1ccc2c(N)ncc(F)c2c1
Result :: 33.7

Query :: Look up and report measured Papp for this entry: Cc1cc2ccc1[C@@H](C)COC(=O)Nc1ccc(C3(C(=O)O)CCOCC3)c(c1)CN(C)C(=O)[C@@H]2Nc1ccc2c(N)ncc(F)c2c1
Result :: 2.6

Query :: State, in one line, measured Papp of Cc1cc2ccc1[C@@H](C)COC(=O)Nc1ccc(C3(C(=O)O)CCCC3)c(c1)CN(C)C(=O)[C@@H]2Nc1ccc2c(N)ncc(F)c2c1
Result :: 21.1

Query :: Give the reported value of Papp for this record: Cc1cc2ccc1[C@@H](C)COC(=O)Nc1ccc(C3(C(=O)O)CCC3)c(c1)CN(C)C(=O)[C@@H]2Nc1ccc2c(N)ncc(F)c2c1
Result :: 20.9
